target: human MRGPR X4 (Homo sapiens, UniProt Q96LA9); construct: expressed in transfected cells; assay: MRGPR X4 antagonist activity, IP-One Gq HTRF assay in stably transfected HEK cells; type: cell-based; conditions: versus 20 μM deoxycholic acid agonist; HEK cells expressing human MRGPR X4; read-out: MRGPRX4 Antagonist Activity
Sequence (Q96LA9 whole entry): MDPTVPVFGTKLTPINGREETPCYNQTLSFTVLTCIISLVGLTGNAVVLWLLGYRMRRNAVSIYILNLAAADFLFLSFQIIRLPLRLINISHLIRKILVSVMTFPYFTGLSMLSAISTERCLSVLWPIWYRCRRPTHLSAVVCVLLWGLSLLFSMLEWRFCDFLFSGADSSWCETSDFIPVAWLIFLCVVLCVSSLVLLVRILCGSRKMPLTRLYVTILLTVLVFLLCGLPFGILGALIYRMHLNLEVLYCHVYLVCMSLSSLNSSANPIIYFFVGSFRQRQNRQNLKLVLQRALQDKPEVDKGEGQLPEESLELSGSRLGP

{"columns": ["Compound", "IC50"],
 "data": [
  ["COc1ccc(Cn2nc(C(=O)NS(=O)(=O)c3cccc(C)c3)c3ccccc32)cc1 [Compound 293]", "1000 to 2500 nM"],
  ["Cc1ccc(C(=O)Cn2nc(C(=O)NCCc3nnc4ccccn34)c3ccccc32)cc1 [Compound 468]", "1000 to 2500 nM"],
  ["O=C(NS(=O)(=O)Cc1ccccn1)c1nn(Cc2ccc(Cl)cc2)c2ccccc12 [Compound 299]", "> 2500 nM"]
]}

----------
Each record here notes measured pIC50.
molecular target: human MRGPR X4 (Homo sapiens); construct: expressed in transfected cells; assay: MRGPR X4 antagonist activity, IP-One Gq HTRF assay in stably transfected HEK cells; format: cell-based
pIC50: −log10 of the molar value.
Assay Metric: pIC50

{"columns": ["Molecule", "Value Measured"],
 "data": [
  ["Cc1nc(CCNC(=O)c2nn(Cc3ccc(Cl)cc3)c3ccccc23)sc1C [Compound 34]", "6.30 to 7.00"],
  ["O=C(CNC(=O)c1nn(Cc2ccc(Cl)cc2)c2ccccc12)c1ccc(O)cc1 [Compound 382]", "6.00 to 6.30"],
  ["O=C(NCCc1c[nH]c2ccc(O)cc12)c1nn(Cc2ccc(Cl)cc2)c2ccccc12 [Compound 338]", "6.30 to 7.00"],
  ["O=C(NCCc1nnc2ccccn12)c1nn(Cc2nc(C3CCC3)no2)c2ccccc12 [Compound 511]", "6.30 to 7.00"]
]}

----------
target: human MRGPR X4 (Homo sapiens); construct: expressed in transfected cells; assay: MRGPR X4 antagonist activity, IP-One Gq HTRF assay in stably transfected HEK cells; assay type: cell-based

{"columns": ["Smiles Input", "IC50"],
 "data": [
  ["Cc1cccc(C(F)(F)F)c1Cn1nc(C(=O)NCCc2nnc3ccccn23)c2ccccc21", "> 2500 nM"],
  ["Cc1ccc(CCNC(=O)c2cn(Cc3ccc(Cl)cc3)c3ccccc23)c(C)n1", "100 to 500 nM"],
  ["O=C(NCCc1ccc(Cl)c(Cl)c1)c1cn(Cc2ccc(Cl)cc2)c2ccccc12", "> 2500 nM"],
  ["O=C(NCCc1nnc2ccccn12)c1nn(Cc2ccc3c(c2)CCC3)c2ccccc12", "< 100 nM"],
  ["O=C(NCCc1ccccn1)c1cn(Cc2ccccc2)c2ccccc12", "> 2500 nM"],
  ["O=C(NCCc1cccc(F)c1)c1cn(Cc2ccc(Cl)cc2)c2ccccc12", "100 to 500 nM"],
  ["Cc1nnc(CCNC(=O)c2nn(Cc3ccc(Cl)cc3)c3ccccc23)n1C", "501 to 1000 nM"],
  ["Cc1ccc2c(c1)nc(Cn1nc(C(=O)NCCc3nnc4ccccn34)c3ccccc31)n2C", "> 2500 nM"],
  ["COc1ccnc(CCNC(=O)c2nn(Cc3ccc(Cl)cc3)c3ccccc23)c1", "100 to 500 nM"],
  ["CC(C)c1ccc(Cn2nc(C(=O)NCCc3nnc4n3CCCCC4)c3ccccc32)cc1", "100 to 500 nM"],
  ["O=C(Nc1cccnc1)c1nn(Cc2ccc(Cl)cc2)c2ccccc12", "> 2500 nM"],
  ["O=C(NCCc1nnc2ccccn12)c1nn(CC2CCC(F)(F)CC2)c2ccccc12", "501 to 1000 nM"],
  ["O=C(NCCc1nnc2ccccn12)c1nn(Cc2ccc(Cl)cc2)c2cccc(F)c12", "< 100 nM"],
  ["O=C(NCCc1nnc2ccccn12)c1nn(Cc2ccc3sccc3c2)c2ccccc12", "< 100 nM"],
  ["O=C(O)c1nn(Cc2ccc(C(F)(F)F)cc2Cl)c2ccccc12", "501 to 1000 nM"],
  ["O=C(NCCc1nnc2ccccn12)c1nn(Cc2ccc(Cl)cc2)c2cc(Cl)ccc12", "< 100 nM"],
  ["Cc1ccccc1S(=O)(=O)NC(=O)c1nn(Cc2ccc(OC(F)F)cc2)c2ccccc12", "100 to 500 nM"],
  ["O=C(NCCc1nnc2ccccn12)c1nn(Cc2ccc(Cl)cc2Cl)c2ccccc12", "< 100 nM"],
  ["O=C(NCCc1nc2c(s1)CCCC2)c1nn(Cc2ccc(Cl)cc2F)c2ccccc12", "100 to 500 nM"],
  ["O=C(NCCc1cccc(F)c1)c1cn(Cc2cccc(F)c2)c2ccccc12", "501 to 1000 nM"],
  ["O=C(NCCc1nnc2ccccn12)c1nn(Cc2ccc(Cl)cc2)c2c(Cl)cccc12", "< 100 nM"],
  ["O=C(NCCc1nnc2ccccn12)c1nn(Cc2cccc3c2CCO3)c2ccccc12", "100 to 500 nM"],
  ["Cc1oc(-c2ccccc2F)nc1Cn1nc(C(=O)NCCc2nnc3ccccn23)c2ccccc21", "100 to 500 nM"],
  ["O=C(NCCc1nnc2ccccn12)c1nn(Cc2ccc3ccccc3n2)c2ccccc12", "100 to 500 nM"],
  ["COc1cc(Cl)ccc1Cn1nc(C(=O)NCCc2nnc3n2CCCCC3)c2ccccc21", "100 to 500 nM"],
  ["CC(=O)c1cccc(Cn2cc(C(=O)NCCc3cccnc3)c3ccccc32)c1", "> 2500 nM"],
  ["O=C(NCCc1coc2ccccc12)c1nn(Cc2ccc(Cl)cc2)c2ccccc12", "501 to 1000 nM"],
  ["Cc1ccc(Cn2nc(C(=O)NCCc3nc4c(s3)CCCC4)c3c(C#N)cccc32)cc1", "100 to 500 nM"]
]}
